Catalogue of composite z-score readings, one per entry.
assay: probe aLefty2 binding to arrayed compounds – biochemical, biotinylated probe, 635/667 nm fluorescence, primary screen (AID 1094); conditions: small-molecule microarray, higher = more signal;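 further: score merges spot fluorescence near 667 nm with spot signal-to-noise ratio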
Give a plain numeric answer without units written out.

Some compounds with recorded composite z-score:
| COMPOUND | RESULT_VALUE |
| --- | --- |
| CC1CC/C=C\[C@H]2OC34C=CCN(C(C)(C)C)C(=O)[C@H]3N(CCCO)C(=O)[C@@H]4C2C(=O)O1 (stereo partly specified) | -0.214 |
| CCC(CC)C(O)C1C=CC2C(=O)N(c3ccccc3)C(=O)C2N1Nc1ccccc1F (stereo unspecified) | 0.172 |
| CCOc1cc(C(O)C2C=CC3C(=O)N(c4ccccc4)C(=O)C3N2Nc2ccccc2F)ccc1O (stereo unspecified) | 0.615 |

The measured composite z-score associated with COc1ccc([Si](C)(C)[C@@H]2[C@@H](CC(=O)N3Cc4ccccc4C[C@H]3CO)O[C@]3(C(=O)N(Cc4cccc(N5CCOC5=O)c4)c4ccccc43)[C@H]2C)cc1 reads -0.121

The measured composite z-score associated with C=CCC(OC(C)=O)[C@@H]1[C@@H](N(Cc2cccc3ccccc23)C(=O)Cc2ccc(OC)cc2)c2cc(OCCCO)ccc2N1C(=O)Cc1ccc2ccccc2c1 (stereo partly specified) reads -0.0911

The measured composite z-score associated with CC(C)(C)N1CC=CC23O[C@@H]4C=CCCOC(=O)C4[C@H]2C(=O)N(CCCCCCO)[C@@H]3C1=O (stereo partly specified) reads -0.171

====

test system: XIP peptide (Xip251-270); test: compounds binding XIP fragment 251-270 – biochemical, small-molecule microarray, fluorescence 635/667 nm, 0.5 µg/mL protein, primary screen (AID 1183); details: fluorescence 635 nm, higher = more signal
Catalogue of composite z-score readings, one per entry.
Give a plain numeric answer without units written out.

| MOLECULE | MEASURED_TARGET | REPORTED_PROPERTY | RESULT_VALUE |
| --- | --- | --- | --- |
| C=CCC(OC(C)=O)[C@@H]1[C@@H](N(Cc2cc3ccccc3o2)C(=O)Cc2ccc(OC)cc2)c2cc(OCCCO)ccc2N1C(=O)c1ccc2ccccc2n1 (stereo partly specified) | XIP peptide (Xip251-270) | composite z-score | -0.454 |
| C=C(CCCC)/C(=C/C[C@@H](OC(C)=O)c1ccc(CO)o1)c1cnc2ccccc2c1 | XIP peptide (Xip251-270) | composite z-score | 0.811 |
| CC(C)=CCCC(C)=CC(O)C1C=CC2C(=O)NC(=O)C2N1Nc1ccc(Cl)cc1Cl (stereo unspecified) | XIP peptide (Xip251-270) | composite z-score | 0.171 |
| C=CCOC(=O)[C@@H]1[C@H]2C(=O)O[C@H](c3ccccc3)[C@H](c3ccccc3)N2[C@H](c2ccc(OCCOC(=O)[C@H]3C[C@H]4C(=O)NCC(=O)N4[C@H]3c3cccc(OCCO)c3)cc2)[C@@]12C(=O)Nc1ccc(I)cc12 | XIP peptide (Xip251-270) | composite z-score | 0.794 |
| N#Cc1ccc(C(O)C2C=CC3C(=O)NC(=O)C3N2Nc2ccc(Cl)cc2Cl)cc1 (stereo unspecified) | XIP peptide (Xip251-270) | composite z-score | 0.0653 |
| O=C1[C@@H]2[C@@H](CC(COc3ccccc3)=C([C@H](O)CCc3ccccc3)[C@@H]2CO)C(=O)N1Cc1ccccc1 | XIP peptide (Xip251-270) | composite z-score | 0.73 |
| CC(C)C[C@H]1NC(=O)C([C@@H](C)OCc2ccccc2)NC(=O)[C@@]23C(=O)N[C@@H](Cc4ccccc4)C2[C@H](C)[C@@]2(C)O[C@H]2C3/C=C/C/C=C\CNC1=O (stereo partly specified) | XIP peptide (Xip251-270) | composite z-score | 0.22 |
| CN1C(=O)C2C(C1=O)C1C=C(c3ccc(CO)cc3)C2C(C2CC2)N1C (stereo unspecified) | XIP peptide (Xip251-270) | composite z-score | 0.816 |

The measured composite z-score associated with C=CC[C@@]1(C(=O)N(C)C)N=C(c2ccc(OCCCO)cc2)O[C@@H]1c1ccccc1CN=[N+]=[N-] reads 0.774

The measured composite z-score associated with CCOC(=O)C1=CC[C@@H](c2ccc(OC)cc2)N(S(=O)(=O)c2ccc(C)cc2)[C@H]1c1ccc(C)cc1 reads 0.44

The measured composite z-score associated with CN1C(=O)C2C(C1=O)C1C=C(CCCO)C2C(C2CC2)N1Cc1cccc(OC(F)(F)F)c1 (stereo unspecified) reads 0.9

====

system: Lefty1; assay: Lefty1 protein binding to printed compounds – biochemical, small-molecule microarray, 635/667 nm fluorescence, primary screen (AID 1139); conditions: fluorescence 635/667, higher = more signal
Catalogue of composite z-score readings, one per entry.
Give a plain numeric answer without units written out.

Some compounds with recorded composite z-score:
| COMPOUND | MEASURED_TARGET | composite z-score |
| --- | --- | --- |
| CCCCN1CC=CC23O[C@@H]4/C=C\CCCOC(=O)C4[C@H]2C(=O)N(C(CO)C(C)C)[C@@H]3C1=O (some centres not stated) | Lefty1 | 0.249 |
| COc1ccc([Si](C)(C)[C@@H]2[C@@H](CC(=O)N3CCC[C@H]3CO)O[C@]3(C(=O)N(Cc4ccc(N5CCOC5=O)cc4)c4ccccc43)[C@H]2C)cc1 | Lefty1 | 0.646 |
| COc1ccc([Si](C)(C)[C@H]2[C@H](CC(=O)N3Cc4ccccc4C[C@H]3CO)O[C@@]3(C(=O)N(C)c4ccccc43)[C@@H]2C)cc1 | Lefty1 | 1.58 |
| COC(=O)C(CC#Cc1ccc2c(c1)[C@]1(C(=O)N2)[C@H](C(=O)NC[C@H](O)c2ccccc2)[C@H]2C(=O)O[C@H](c3ccccc3)[C@H](c3ccccc3)N2[C@@H]1c1ccccc1OCCO)C(=O)OC | Lefty1 | 0.221 |
| C=C(C)[C@@H]1CC=C(C(O)C2C=CC3C(=O)N(C)C(=O)C3N2Nc2ccc([N+](=O)[O-])cc2[N+](=O)[O-])CC1 (some centres not stated) | Lefty1 | 0.424 |

The measured composite z-score associated with COCCOC(=O)N1C(=O)[C@@]2(c3cc(C#CCC(C(=O)OC)C(=O)OC)ccc31)[C@H](C(=O)Nc1nc3ccccc3s1)[C@H]1C(=O)O[C@H](c3ccccc3)[C@H](c3ccccc3)N1[C@@H]2c1ccc(OCCO)cc1 reads 1.64

The measured composite z-score associated with CN1C(=O)C2C(C3CC3)C=C3CN(Cc4cccc(Cl)c4)[C@@H]([C@@H](O)Cc4ccccc4)C3C2C1=O (some centres not stated) reads 1.45

The measured composite z-score associated with C#CCN1[C@@H](Cc2ccccc2)C(=O)O[C@H](Cc2ccccc2)[C@@H]1/C=C/C1CC1 reads 1.1

The measured composite z-score associated with CC(C)N1C(=O)c2ccccc2[C@@H](C(=O)NCC(F)(F)F)[C@@H]1c1ccc(CO)cc1 reads -0.232

The measured composite z-score associated with COCCOC(=O)N1C(=O)[C@@]2(c3ccccc31)[C@H](C(=O)N1CCN(c3ncccn3)CC1)[C@H]1C(=O)O[C@H](c3ccccc3)[C@H](c3ccccc3)N1[C@@H]2c1ccccc1OCCO reads 1.02

The measured composite z-score associated with C=CCNC(=O)[C@H]1[C@@H]2C(=O)O[C@@H](c3ccccc3)[C@@H](c3ccccc3)N2[C@@H](c2ccc(OCCO)cc2)[C@]12C(=O)Nc1ccc(C#CC3(O)CCCCCC3)cc12 reads 1.3

The measured composite z-score associated with COC(=O)[C@@]1(Cc2ccc(OC)cc2)[C@H]2c3cc(C(=O)N4CCCC4)n(Cc4ccc(Cl)c(C(F)(F)F)c4)c3C[C@H]2CN1C(=O)c1ccccc1 reads 0.125

The measured composite z-score associated with O=C(NC1CC1)[C@@H]1c2ccccc2C(=O)N(CC23CC4CC(CC(C4)C2)C3)[C@H]1c1ccc(CO)cc1 reads 1.33

The measured composite z-score associated with [N-]=[N+]=Nc1ccccc1[C@@H]1OC(c2ccc(OCCCO)cc2)=N[C@]1(CCS(=O)(=O)c1ccccc1)C(=O)NCC(O)CO (some centres not stated) reads -0.285

The measured composite z-score associated with CC(C)C[C@@H]1NC(=O)[C@@H]2C[C@H](C(=O)NCCCCCCNC(=O)CS)[C@H](c3cccc(OCCO)c3)N2C1=O reads 1.44

The measured composite z-score associated with COC(=O)[C@H](Cc1ccc(O)cc1)N[C@@H](/C=C/C1CC1)[C@H](O)Cc1ccccc1 reads 0.389

The measured composite z-score associated with CN(C)CCCNC(=O)[C@@]1(Cc2ccccc2I)c2ccccc2C(=O)N(C2CCCCC2)[C@H]1c1ccc(CO)cc1 reads 0.27

Origin of measurements: PubChem BioAssay
